The entries below come with measured Internalization (%), FACS, 2 µg/ml, 2 h values attached.
- EXPERIMENTAL SYSTEM: human PD-L1 expressed on cell surface (human, UniProt Q9NZQ7 19-290)
- Sequence (Q9NZQ7 19-290 limits assumed): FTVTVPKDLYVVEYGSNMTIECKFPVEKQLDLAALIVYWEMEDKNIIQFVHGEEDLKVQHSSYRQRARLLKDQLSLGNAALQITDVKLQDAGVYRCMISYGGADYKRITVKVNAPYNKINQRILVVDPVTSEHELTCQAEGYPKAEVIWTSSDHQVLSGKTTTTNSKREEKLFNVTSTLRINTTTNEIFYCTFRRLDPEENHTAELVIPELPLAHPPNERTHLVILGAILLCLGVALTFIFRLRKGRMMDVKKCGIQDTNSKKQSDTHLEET
- TEST NAME: cell-based or functional assay
Use % as the unit, but write only the number.

Looking up 57F11 (antibody, human IgG1, V domains shown) VH: QEHLEESGGGLVQPEGALTLTCTASGFSFSGDYYMSWVRQAPGKGLEWIASIYTGSLNTYYATWAKGRFTISIASSTTVTLQVTSLTAADTATYFCARRTKNGDYGYFDLWGPGTLVTVSS VL: YDMTQTPASVEVAVGGTVTIKCQASQSINDRLAWYQQKPGQPPKLLIYAASTLASGVPSRFKGSGSGTEFTLTISDLECADAATYYCQQGWTVSSLENAFGGGTEVVAK , I found its Internalization (%), FACS, 2 µg/ml, 2 h recorded as 14.5

Note to self: Internalization (%), FACS, 2 µg/ml, 2 h recorded for 28B3 (antibody, human IgG1, V domains shown) VH: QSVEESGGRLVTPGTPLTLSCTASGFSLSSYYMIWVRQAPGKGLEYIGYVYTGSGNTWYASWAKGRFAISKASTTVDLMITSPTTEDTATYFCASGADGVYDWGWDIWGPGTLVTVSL VL: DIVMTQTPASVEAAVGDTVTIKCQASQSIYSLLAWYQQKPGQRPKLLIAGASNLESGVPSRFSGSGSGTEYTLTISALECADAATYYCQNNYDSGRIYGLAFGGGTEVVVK was 8.3

Summary for this binder, 55H3/76D6 (antibody, human IgG1, V domains shown) VH: QEQLEESGGGLVQPEGSLTLTCTVSGFSFSGDYYMSWVRQAPGKGLEWVASIYTGSLNSYYATWAKGRFTISLTSSTTVTLQMTSLTAADTATYFCARRNKNADYGHFDLWGPGTLVTVSS VL: YDMTQTPASVEVAVGGTVTIKCQASESINDRLAWYQQKPGQPPKLLIYAASTLASGVPSRFRGSGSGTDFTLTISDLECADAATYYCQQGWTVSSLDNAFGGGTEVVAM : Internalization (%), FACS, 2 µg/ml, 2 h is 24.2

Others:
Lookup result for 57B10 (antibody, human IgG1, V domains shown) VH: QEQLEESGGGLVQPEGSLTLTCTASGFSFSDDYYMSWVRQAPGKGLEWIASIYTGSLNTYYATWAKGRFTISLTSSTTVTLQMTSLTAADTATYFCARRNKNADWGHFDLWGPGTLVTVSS VL: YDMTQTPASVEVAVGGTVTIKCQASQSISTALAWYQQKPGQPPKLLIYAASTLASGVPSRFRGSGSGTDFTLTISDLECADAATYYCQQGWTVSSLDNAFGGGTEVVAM ; measured Internalization (%), FACS, 2 µg/ml, 2 h: 19.2

Documented Internalization (%), FACS, 2 µg/ml, 2 h of 74F4 (antibody, human IgG1, V domains shown) VH: QEQLEESGGGLVQPEGSLTLTCTASGFSFSGDYYMSWVRQAPGKGLEWIASIYTGSLNTYYATWAKGRFTISLTSSTTVTLQMTSLTAADTATYFCARRNKNADYGHFDLWGPGTLVTVSS VL: YDMTQTPASVEVAVGGTVTIKCQASQSINDRLAWYQQSPGQPPKLLIYGASTLASGVPSRFKGSGSGTDFTLTISDLECADAATYYCQQGWTVSSLDNAFGGGTEVVAK : 24.1
